Target: EphA2 (Homo sapiens)
Sequence (P29317 25-534 limits assumed, species assumed): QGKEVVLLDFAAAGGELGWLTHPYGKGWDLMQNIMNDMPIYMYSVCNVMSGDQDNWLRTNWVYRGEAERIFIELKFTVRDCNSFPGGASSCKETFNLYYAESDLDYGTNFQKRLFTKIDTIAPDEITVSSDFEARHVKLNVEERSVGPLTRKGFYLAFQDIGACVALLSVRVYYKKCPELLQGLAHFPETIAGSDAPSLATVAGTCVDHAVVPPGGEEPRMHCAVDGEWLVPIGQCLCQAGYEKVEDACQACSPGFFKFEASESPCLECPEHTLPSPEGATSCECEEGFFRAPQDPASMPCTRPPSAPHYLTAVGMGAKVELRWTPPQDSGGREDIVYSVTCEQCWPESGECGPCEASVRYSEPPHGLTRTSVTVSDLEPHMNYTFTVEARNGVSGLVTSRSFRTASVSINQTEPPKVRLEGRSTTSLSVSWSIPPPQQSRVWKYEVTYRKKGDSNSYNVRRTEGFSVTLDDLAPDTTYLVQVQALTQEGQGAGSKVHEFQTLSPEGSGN
observation_type: Ki

Cc1ccc(C)n1-c1ccc(O)c(C(=O)O)c1 : 10 to 13 µM

Let us move to another entry and its Ki.
// lookup Ki for Cc1ccc(C)n1-c1ccc(C(=O)O)c(O)c1
11 to 14 µM

====

Target: EphA4 (Homo sapiens)
Sequence (P54764 20-547 limits assumed, species assumed): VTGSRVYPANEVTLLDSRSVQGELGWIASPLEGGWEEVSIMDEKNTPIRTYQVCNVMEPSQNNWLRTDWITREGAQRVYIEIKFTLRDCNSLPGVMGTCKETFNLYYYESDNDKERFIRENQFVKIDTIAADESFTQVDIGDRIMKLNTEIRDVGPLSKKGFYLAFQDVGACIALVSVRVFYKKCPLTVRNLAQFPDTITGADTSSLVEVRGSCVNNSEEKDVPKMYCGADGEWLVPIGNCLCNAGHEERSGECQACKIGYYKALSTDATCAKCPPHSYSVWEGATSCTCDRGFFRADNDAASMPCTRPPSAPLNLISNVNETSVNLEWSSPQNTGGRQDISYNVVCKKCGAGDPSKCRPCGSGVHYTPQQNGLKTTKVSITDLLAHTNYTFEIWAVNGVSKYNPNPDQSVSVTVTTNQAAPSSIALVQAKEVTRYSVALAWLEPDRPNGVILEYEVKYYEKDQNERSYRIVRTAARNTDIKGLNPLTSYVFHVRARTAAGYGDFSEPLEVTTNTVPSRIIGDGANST
Test: ELISA, ephrin-A5 AP binding to immobilized EphA4 Fc
Settings: from ephrin-A5 AP binding curves at different compound concentrations; read-out: Ki, competitive inhibition of EphA4-ephrin-A5 binding
Reported values of Ki for individual entries
Quick reminder: number only, in µM, skip the unit.

Cc1ccc(C)n1-c1ccc(O)c(C(=O)O)c1 [compound 2] : 7

Now examine the next entry.
Entry Cc1ccc(C)n1-c1ccc(C(=O)O)c(O)c1 [compound 1] : reported Ki = ?
8

====

Heads up, these compounds all have IC50 values measured for EphA4 (Homo sapiens, UniProt P54764).
# unit: µM | format: bare number

Cc1ccc(C)n1-c1ccc(O)c(C(=O)O)c1 : 9

Continue with the next compound.
Please report the recorded IC50 for Cc1ccc(C)n1-c1ccc(C(=O)O)c(O)c1 .
13

====

Target: EphA4 (Homo sapiens)
Test: ELISA, ephrin-A5 AP binding to immobilized EphA4 Fc
Details: from other inhibition curves using different ephrin concentrations; read-out: Ki calculated with the Cheng-Prusoff equation, EphA4-ephrin-A5
pKi: −log10 of the molar value.
Listed next: entries and their corresponding pKi.

Cc1ccc(C)n1-c1ccc(O)c(C(=O)O)c1 [compound 2] : 5.10 to 5.22

Okay, next one:
Form field: reported pKi of Cc1ccc(C)n1-c1ccc(C(=O)O)c(O)c1 [compound 1]
5.00 to 5.22

====

Biological target: EphA4 (Homo sapiens)
Assay: ELISA, ephrin-A5 AP binding to immobilized EphA4 Fc
Conditions: from the inhibition curves shown in FIG. 2; read-out: Ki calculated with the Cheng-Prusoff equation, EphA4-ephrin-A5
observation_type: Ki (µM)
Respond numerically; units are µM and should not be typed.

Cc1ccc(C)n1-c1ccc(O)c(C(=O)O)c1 : 6

Okay, next one:
For EphA4 (Homo sapiens), provide Ki of Cc1ccc(C)n1-c1ccc(C(=O)O)c(O)c1 please.
10

====

Kd reference
Biological target: EphA4 ligand-binding domain (Homo sapiens, UniProt P54764, C204A)
Construct: His-tagged fusion partner of modified pET32a (N, cleaved yes)
Sequence (P54764 29-209 C204A): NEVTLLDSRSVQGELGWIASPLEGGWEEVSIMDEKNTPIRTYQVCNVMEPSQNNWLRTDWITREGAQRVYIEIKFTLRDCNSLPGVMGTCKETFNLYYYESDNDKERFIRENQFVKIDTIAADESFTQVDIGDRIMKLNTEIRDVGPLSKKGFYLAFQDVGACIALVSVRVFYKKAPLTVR
Experiment: Isothermal titration calorimetry with EphA4 ligand-binding domain
Settings: ITC
The reply should contain only the number, in µM.

Cc1ccc(C)n1-c1ccc(C(=O)O)c(O)c1 : 20.4

I have this compound here, Cc1ccc(C)n1-c1ccc(O)c(C(=O)O)c1 , and I need its recorded Kd.
26.4

These measurements were taken from patent US20100256214A1.
